test system: OVCAR-4 ovarian; assay: NCI tumour cell line growth inhibition, 48 h; in the data active means GI50 below about 0.43 µM; inactive means the rest
Pick from 1 = active, 0 = inactive when you respond.

[[record]]
compound = "Nc1c(C(=O)Nc2ccccc2)sc2nc3c(cc12)C(O)CCC3 (stereo unspecified)"
cat = 0

[[record]]
compound = "O=C(Nc1ccc(-n2ccc3c(NC(=O)c4ccccc4)nccc32)cc1)c1cccc(C(F)(F)F)c1"
cat = 0

[[record]]
compound = "O=c1c2c3c(sc2n2c(CCl)nnc2n1Cc1ccccc1)CCCC3"
cat = 0

[[record]]
compound = "CCCCCC/C=C\\CCCCCCCCCc1cc(O)cc(OC)c1O"
cat = 1


Task: What classification did NCCOc1ncccc1/C=C1\C2C=CC=CC2C2C=CC(F)=CC12 (stereo unspecified) end up with in this test?
Output: 0

Task: Outcome logged for "CO/N=C(\COc1ccc2c(=O)cc(-c3ccccc3)oc2c1)c1ccc(F)cc1" in this assay:
Output: 0

Task: How did this test come out for "N#CCCN1C/C(=C/c2ccccc2)C(=O)/C(=C/c2ccccc2)C1" ?
Output: 0

Task: Could you please tell me the result logged for "Cc1ccncc1N1CCN(c2ccnc(Cl)c2)C1=O" in this assay?
Output: 0

Task: Called result for "Cc1ccnc2[nH]c(-c3cccc4ccccc34)cc(=O)c12"
Output: 0

Task: Assay outcome for "COc1ccc(C(=O)NCCNc2nccc(-c3c(-c4ccc(F)cc4)nc4sccn34)n2)cc1" : what was it?
Output: 0

Task: // return assay outcome for COc1ccc(C(=O)C2C(C#N)C(C#N)C3C=Cc4ccccc4N32)cc1 (stereo unspecified)
Output: 0
